The origin of these recorded values is patent US11492346B2.

- tgt: KAT6A (Homo sapiens (Human), UniProt Q92794)
- Sequence (Q92794 whole entry): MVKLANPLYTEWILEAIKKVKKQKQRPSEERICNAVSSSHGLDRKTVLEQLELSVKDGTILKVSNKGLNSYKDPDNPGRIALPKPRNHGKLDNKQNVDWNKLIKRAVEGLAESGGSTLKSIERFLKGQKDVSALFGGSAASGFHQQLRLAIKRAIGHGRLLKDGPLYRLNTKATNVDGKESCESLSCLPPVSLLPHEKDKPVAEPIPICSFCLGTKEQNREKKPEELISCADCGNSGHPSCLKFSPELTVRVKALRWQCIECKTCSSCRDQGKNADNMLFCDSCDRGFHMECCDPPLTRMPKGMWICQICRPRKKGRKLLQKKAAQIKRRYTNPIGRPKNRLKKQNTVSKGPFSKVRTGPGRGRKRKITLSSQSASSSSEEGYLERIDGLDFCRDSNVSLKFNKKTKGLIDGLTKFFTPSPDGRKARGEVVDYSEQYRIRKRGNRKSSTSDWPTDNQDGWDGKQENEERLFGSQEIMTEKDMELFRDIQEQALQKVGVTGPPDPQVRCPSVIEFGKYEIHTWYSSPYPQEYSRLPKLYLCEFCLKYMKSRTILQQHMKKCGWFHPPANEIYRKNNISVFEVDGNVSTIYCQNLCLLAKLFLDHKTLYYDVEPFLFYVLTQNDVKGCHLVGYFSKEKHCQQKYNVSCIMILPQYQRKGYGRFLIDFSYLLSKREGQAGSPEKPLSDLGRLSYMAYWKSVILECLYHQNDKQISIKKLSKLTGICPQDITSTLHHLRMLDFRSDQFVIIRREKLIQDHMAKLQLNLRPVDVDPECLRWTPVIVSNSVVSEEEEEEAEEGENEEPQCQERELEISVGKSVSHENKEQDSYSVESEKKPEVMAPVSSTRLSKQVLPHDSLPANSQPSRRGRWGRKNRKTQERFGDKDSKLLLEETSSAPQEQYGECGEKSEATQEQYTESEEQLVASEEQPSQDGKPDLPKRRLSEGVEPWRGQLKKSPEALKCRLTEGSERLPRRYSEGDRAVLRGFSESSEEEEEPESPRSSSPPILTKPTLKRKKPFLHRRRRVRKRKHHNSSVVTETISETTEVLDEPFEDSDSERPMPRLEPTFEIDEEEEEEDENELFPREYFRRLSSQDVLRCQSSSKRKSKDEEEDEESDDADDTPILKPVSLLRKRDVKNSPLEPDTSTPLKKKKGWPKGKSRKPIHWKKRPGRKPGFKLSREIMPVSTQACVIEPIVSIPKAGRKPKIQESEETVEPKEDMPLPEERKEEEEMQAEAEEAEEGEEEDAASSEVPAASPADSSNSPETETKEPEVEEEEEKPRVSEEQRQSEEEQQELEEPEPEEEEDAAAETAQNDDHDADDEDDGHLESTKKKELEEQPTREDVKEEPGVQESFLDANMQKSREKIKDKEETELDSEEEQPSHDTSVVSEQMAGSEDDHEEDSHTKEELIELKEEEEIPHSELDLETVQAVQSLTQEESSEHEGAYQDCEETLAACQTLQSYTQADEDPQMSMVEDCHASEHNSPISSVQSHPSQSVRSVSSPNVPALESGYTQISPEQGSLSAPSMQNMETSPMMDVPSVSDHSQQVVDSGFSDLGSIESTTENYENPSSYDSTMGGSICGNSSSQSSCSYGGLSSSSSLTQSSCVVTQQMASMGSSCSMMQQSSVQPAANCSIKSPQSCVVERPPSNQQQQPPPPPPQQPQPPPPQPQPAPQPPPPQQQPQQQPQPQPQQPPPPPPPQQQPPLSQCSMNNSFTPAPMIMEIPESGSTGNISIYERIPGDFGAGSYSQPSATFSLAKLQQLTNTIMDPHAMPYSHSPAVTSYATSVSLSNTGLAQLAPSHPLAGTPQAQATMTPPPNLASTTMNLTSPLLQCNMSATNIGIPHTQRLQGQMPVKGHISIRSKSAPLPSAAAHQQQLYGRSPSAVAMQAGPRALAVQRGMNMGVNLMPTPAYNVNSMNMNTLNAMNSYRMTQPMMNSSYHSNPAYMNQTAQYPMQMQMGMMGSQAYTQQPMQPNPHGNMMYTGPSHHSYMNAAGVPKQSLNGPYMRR
- protocolDescription: KAT assay (SAMDI mass spectrometry), KAT6A;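 note: Baculovirus-expressed KAT6A acetylating histone H3 (1-21) peptide (2 µM), 30-60 min at room temperature, % product conversion fitted to Morrison equation for tight-binding competitive inhibitors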
- Type: biochemical
- protocolConditions: read-out: KAT6a Ki at 1 μM AcCoA; 1 μM AcCoA
measurementLabel: Ki (nM)
Your answer is read as nM, so omit the unit and give the number.

Name the recorded Ki for COc1cc(Cl)ccc1S(=O)(=O)Nc1noc2cc(Cn3cccn3)cc(OC)c12 . 1.18

Name the recorded Ki for CCc1ccc(OC)c(S(=O)(=O)Nc2noc3cc(Cn4cccn4)c(F)cc23)c1 . 1.4

Name the recorded Ki for COc1cccc(OC)c1S(=O)(=O)Nc1noc2cc(Cn3cccn3)cc(OC(C)C)c12 . 2.72

Name the recorded Ki for COc1cccc(OC)c1S(=O)(=O)Nc1noc2cc(Cn3cccn3)cc(Cl)c12 . 3.1

Name the recorded Ki for CCOc1ccccc1S(=O)(=O)Nc1noc2cc(Cn3cccn3)cc(OC)c12 . 2.71

Name the recorded Ki for COc1ccc(S(=O)(=O)Nc2noc3cc(Cn4cccn4)cc(OC)c23)c(C)c1F . 13.3

Name the recorded Ki for COc1cccc(OC)c1S(=O)(=O)Nc1noc2cc(C(O)c3ccccn3)cc(OC)c12 (centres unmarked) . 35

Name the recorded Ki for COCc1ccc(OC)c(S(=O)(=O)Nc2noc3cc(Cn4cccn4)c(F)cc23)c1 . 12

Name the recorded Ki for COC(=O)c1cccc(C)c1S(=O)(=O)Nc1noc2cc(Cn3cccn3)cc(OC)c12 . 291

Name the recorded Ki for COc1cccc(OC)c1S(=O)(=O)Nc1noc2cc(Cn3cc(F)cn3)cc(OC)c12 . 21

Name the recorded Ki for CCOc1cc(Cn2cccn2)cc2onc(NS(=O)(=O)c3c(OC)cccc3OC)c12 . 2.74

Name the recorded Ki for COc1cc(Cn2cccn2)cc2onc(NS(=O)(=O)c3cc(C)cc(F)c3)c12 . 9.13

Name the recorded Ki for COc1cc(Cn2cccn2)cc2onc(NS(=O)(=O)c3cc(F)c(Cl)cc3F)c12 . 14.9

Name the recorded Ki for COc1ccc(S(=O)(=O)Nc2noc3cc(Cn4cccn4)ccc23)c(OC)c1 . 15

Name the recorded Ki for COc1cc2c(NS(=O)(=O)c3c(OC)cccc3OC)noc2cc1Cn1cccn1 . 0.74

Name the recorded Ki for COc1cccc(OC)c1S(=O)(=O)Nc1noc2cc(Cn3cccn3)cc(F)c12 . 5.15

Name the recorded Ki for COc1cccc(OC)c1S(=O)(=O)Nc1noc2cc(Cc3ccon3)cc(OC)c12 . 1.9
